- testMethodNotes: Substrate specificities of KAZ mutants (ZZ-fused, crude enzyme), CTZ
- Type: biochemical
- runConditions: ZZ-fused crude enzyme; 1 μg substrate; maximum intensity of luminescence
propertyName: Relative Luminescence Activity CTZ Imax

Value of measured Relative Luminescence Activity CTZ Imax for the entry KAZ: wild 19 kDa catalytic protein of Oplophorus luciferase (19kOLase), amino acid sequence SEQ ID NO: 2 (protein, listed as Oplophorus gracilirostris) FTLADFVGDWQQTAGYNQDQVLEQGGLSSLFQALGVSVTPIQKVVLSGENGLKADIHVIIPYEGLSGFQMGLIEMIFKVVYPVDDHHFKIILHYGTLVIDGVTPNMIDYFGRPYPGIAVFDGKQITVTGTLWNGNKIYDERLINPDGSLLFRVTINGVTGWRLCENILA : 1.0

Attribution: patent US10907134B2
